Target: T1, Mouse FGFR2 IIIb D1-3 (mouse)
T1 chain: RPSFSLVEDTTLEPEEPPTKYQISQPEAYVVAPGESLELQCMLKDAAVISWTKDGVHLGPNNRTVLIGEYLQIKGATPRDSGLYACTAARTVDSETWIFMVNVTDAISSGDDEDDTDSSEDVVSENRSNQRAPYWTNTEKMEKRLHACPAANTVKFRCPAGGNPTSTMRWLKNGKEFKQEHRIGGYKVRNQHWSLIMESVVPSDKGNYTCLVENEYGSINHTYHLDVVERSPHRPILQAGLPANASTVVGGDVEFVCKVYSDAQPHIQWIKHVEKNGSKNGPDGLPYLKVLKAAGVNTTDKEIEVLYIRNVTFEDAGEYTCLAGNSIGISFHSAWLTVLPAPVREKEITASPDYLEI
Experiment: SPR Biacore, IgG captured via anti-human Fc, soluble FGFR as analyte
measurementKind: Kd (nM)

{"binder": "mAb12422 (antibody, human IgG1, kappa, V domains shown, HuCAL human IgG1) VH: QVQLVQSGAEVKKPGSSVKVSCKASGGTFSSYAISWVRQAPGQGLEWMGYISPYMGETHYAQKFQGRVTITADESTSTAYMELSSLRSEDTAVYYCARESYEYFDIWGQGTLVTVSS VL: DIQMTQSPSSLSASVGDRVTITCRASQSISNDLAWYQQKPGKAPKLLIYATSILQSGVPSRFSGSGSGTDFTLTISSLQPEDFATYYCLQYYDYSYTFGQGTKVEIKR", "measurementKind": "Kd", "readoutUnit": "nM", "result": 7.7}
